B1: TPR 5TU (parent)
chain: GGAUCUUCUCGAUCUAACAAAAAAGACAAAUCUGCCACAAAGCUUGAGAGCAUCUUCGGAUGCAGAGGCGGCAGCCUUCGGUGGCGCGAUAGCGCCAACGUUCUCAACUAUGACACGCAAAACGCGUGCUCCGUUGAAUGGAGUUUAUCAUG

# Variants of: B1
# ASSAY_OVERVIEW: polymerase ribozyme fitness, log enrichment relative to wild type (log ratio); higher = more active; in vitro selection for triplet polymerase activity
Fewer inactive variants are shown than the library holds.
ENDPOINT_NAME: polymerase ribozyme fitness (log ratio)

[
  {
    "VARIANT_ANNOTATION": "U4C A12G A73G C93U G152A",
    "ENDPOINT_NAME": "polymerase ribozyme fitness (log ratio)",
    "CENSORING_OPERATOR": "=",
    "EXPERIMENTAL_VALUE": -3.07
  },
  {
    "VARIANT_ANNOTATION": "U15G A26U A52G G83A U102G",
    "ENDPOINT_NAME": "polymerase ribozyme fitness (log ratio)",
    "CENSORING_OPERATOR": "≤",
    "EXPERIMENTAL_VALUE": -4.2
  },
  {
    "VARIANT_ANNOTATION": "C8U A28U U53A G67A C69U G88C A89U A98G A138C",
    "ENDPOINT_NAME": "polymerase ribozyme fitness (log ratio)",
    "CENSORING_OPERATOR": "≤",
    "EXPERIMENTAL_VALUE": -4.2
  },
  {
    "VARIANT_ANNOTATION": "C79U C93U C95U",
    "ENDPOINT_NAME": "polymerase ribozyme fitness (log ratio)",
    "CENSORING_OPERATOR": "=",
    "EXPERIMENTAL_VALUE": -4.08
  },
  {
    "VARIANT_ANNOTATION": "G59C A64U C75U C132U",
    "ENDPOINT_NAME": "polymerase ribozyme fitness (log ratio)",
    "CENSORING_OPERATOR": "≤",
    "EXPERIMENTAL_VALUE": -4.2
  },
  {
    "VARIANT_ANNOTATION": "G58U G152U",
    "ENDPOINT_NAME": "polymerase ribozyme fitness (log ratio)",
    "CENSORING_OPERATOR": "=",
    "EXPERIMENTAL_VALUE": -2.71
  },
  {
    "VARIANT_ANNOTATION": "A19U C87U A121C A147U",
    "ENDPOINT_NAME": "polymerase ribozyme fitness (log ratio)",
    "CENSORING_OPERATOR": "=",
    "EXPERIMENTAL_VALUE": 0.743
  },
  {
    "VARIANT_ANNOTATION": "A17C C32U",
    "ENDPOINT_NAME": "polymerase ribozyme fitness (log ratio)",
    "CENSORING_OPERATOR": "=",
    "EXPERIMENTAL_VALUE": -1.61
  }
]
